- target-or-system: GST-Ap-NF-kB RHD (Exaiptasia pallida (Aiptasia), UniProt A0A913YAJ5 2-422)
- Sequence: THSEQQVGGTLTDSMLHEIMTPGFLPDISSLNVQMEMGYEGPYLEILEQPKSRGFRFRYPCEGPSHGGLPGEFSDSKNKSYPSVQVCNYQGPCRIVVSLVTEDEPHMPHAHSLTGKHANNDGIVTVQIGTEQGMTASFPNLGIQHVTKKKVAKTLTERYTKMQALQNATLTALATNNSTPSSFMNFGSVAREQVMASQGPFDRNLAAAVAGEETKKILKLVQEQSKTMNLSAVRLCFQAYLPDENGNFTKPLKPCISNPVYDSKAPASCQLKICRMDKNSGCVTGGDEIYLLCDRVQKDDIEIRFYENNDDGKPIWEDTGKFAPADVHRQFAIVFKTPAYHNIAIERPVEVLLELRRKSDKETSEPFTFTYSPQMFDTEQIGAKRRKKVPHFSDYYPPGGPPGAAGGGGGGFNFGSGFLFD
- assay-summary: protein-binding microarray (PBM); PBM: ~300 nM protein, 6 mM HEPES pH 7.8, 80 mM KCl, 0.5 mM EDTA, 0.5 mM EGTA, 6% glycerol, 35 ng/ul poly-dIdC, 1% milk, 1 h, room temperature; Ap Aiptasia and Nv Nematostella (sea anemones) / Co Capsaspora / Aq Amphimedon (sponge) / Dm Drosophila / Hu human; RHD is the Rel homology domain; high values mean tight binding
- condition-notes: dsDNA, one strand shown
readout-type: binding signal

- item-sequence: "CCGATTAACATCAGGCATGCCCCTGATGTTAATCGGGTCTTGATTCGCTTGACGCTGCTG"
  reading: "2.6 z-score"
- item-sequence: "CCGATTAACATCAGGCGTCCCCCTGATGTTAATCGGGTCTTGATTCGCTTGACGCTGCTG"
  reading: "5.61 z-score"
- item-sequence: "CCGATTAACATCAGGGGGATTTATGATGTTAATCGGGTCTTGATTCGCTTGACGCTGCTG"
  reading: "8.91 z-score"
- item-sequence: "CCGATTAACATCATCAGGGAAAATGATGTTAATCGGGTCTTGATTCGCTTGACGCTGCTG"
  reading: "2.12 z-score"
- item-sequence: "CCGATTAACATCAGGGGAATAACTGATGTTAATCGGGTCTTGATTCGCTTGACGCTGCTG"
  reading: "6.5 z-score"
- item-sequence: "CCGATTAACATCAAACCTTCCCCTGATGTTAATCGGGTCTTGATTCGCTTGACGCTGCTG"
  reading: "4.68 z-score"
- item-sequence: "CCGATTAACATCAGGGGGTAATATGATGTTAATCGGGTCTTGATTCGCTTGACGCTGCTG"
  reading: "4.99 z-score"
- item-sequence: "CCGATTAACATCAAAATACCCCCTGATGTTAATCGGGTCTTGATTCGCTTGACGCTGCTG"
  reading: "9.02 z-score"
- item-sequence: "CCGATTAACATCAAAGGGAATAGTGATGTTAATCGGGTCTTGATTCGCTTGACGCTGCTG"
  reading: "2.26 z-score"
- item-sequence: "CCGATTAACATCACACATTCCCCTGATGTTAATCGGGTCTTGATTCGCTTGACGCTGCTG"
  reading: "6.52 z-score"
- item-sequence: "CCGATTAACATCAGGAAGCCCCCTGATGTTAATCGGGTCTTGATTCGCTTGACGCTGCTG"
  reading: "6.62 z-score"
- item-sequence: "CCGATTAACATCAGGGGGTGAAATGATGTTAATCGGGTCTTGATTCGCTTGACGCTGCTG"
  reading: "3.26 z-score"
- item-sequence: "CCGATTAACATCACTGGGAATTCTGATGTTAATCGGGTCTTGATTCGCTTGACGCTGCTG"
  reading: "3.23 z-score"
- item-sequence: "CCGATTAACATCATGGGAAAAAATGATGTTAATCGGGTCTTGATTCGCTTGACGCTGCTG"
  reading: "1.94 z-score"
- item-sequence: "CCGATTAACATCAGCAAATTCCCTGATGTTAATCGGGTCTTGATTCGCTTGACGCTGCTG"
  reading: "3.17 z-score"
- item-sequence: "CCGATTAACATCAGGGGAACAAATGATGTTAATCGGGTCTTGATTCGCTTGACGCTGCTG"
  reading: "3.88 z-score"
- item-sequence: "CCGATTAACATCAGAATATCCCCTGATGTTAATCGGGTCTTGATTCGCTTGACGCTGCTG"
  reading: "7.8 z-score"
- item-sequence: "CCGATTAACATCAGGGGGATTACTGATGTTAATCGGGTCTTGATTCGCTTGACGCTGCTG"
  reading: "8.76 z-score"
- item-sequence: "CCGATTAACATCAGGGGGAGGTATGATGTTAATCGGGTCTTGATTCGCTTGACGCTGCTG"
  reading: "4.66 z-score"
- item-sequence: "CCGATTAACATCAACATGGGAAATGATGTTAATCGGGTCTTGATTCGCTTGACGCTGCTG"
  reading: "1.54 z-score"
- item-sequence: "CCGATTAACATCAGGGGAAAACATGATGTTAATCGGGTCTTGATTCGCTTGACGCTGCTG"
  reading: "6.62 z-score"
- item-sequence: "CCGATTAACATCACGGAATCCCCTGATGTTAATCGGGTCTTGATTCGCTTGACGCTGCTG"
  reading: "8.93 z-score"
- item-sequence: "CCGATTAACATCAGGGGTAAATATGATGTTAATCGGGTCTTGATTCGCTTGACGCTGCTG"
  reading: "2.7 z-score"
- item-sequence: "CCGATTAACATCAAGGAAACCCCTGATGTTAATCGGGTCTTGATTCGCTTGACGCTGCTG"
  reading: "6.7 z-score"
- item-sequence: "CCGATTAACATCAATCTCCCCCATGATGTTAATCGGGTCTTGATTCGCTTGACGCTGCTG"
  reading: "6.53 z-score"
- item-sequence: "CCGATTAACATCAAATGACCCCCTGATGTTAATCGGGTCTTGATTCGCTTGACGCTGCTG"
  reading: "4.25 z-score"
- item-sequence: "CCGATTAACATCAGGGAATTTTATGATGTTAATCGGGTCTTGATTCGCTTGACGCTGCTG"
  reading: "6.12 z-score"
- item-sequence: "CCGATTAACATCACACTACCCCCTGATGTTAATCGGGTCTTGATTCGCTTGACGCTGCTG"
  reading: "4.66 z-score"
- item-sequence: "CCGATTAACATCAAATGGGAATTTGATGTTAATCGGGTCTTGATTCGCTTGACGCTGCTG"
  reading: "1.19 z-score"
- item-sequence: "CCGATTAACATCAAAAAATCACCTGATGTTAATCGGGTCTTGATTCGCTTGACGCTGCTG"
  reading: "2.88 z-score"
- item-sequence: "CCGATTAACATCAGGCCTTTCCCTGATGTTAATCGGGTCTTGATTCGCTTGACGCTGCTG"
  reading: "2.77 z-score"
- item-sequence: "CCGATTAACATCAAGGGAATACCTGATGTTAATCGGGTCTTGATTCGCTTGACGCTGCTG"
  reading: "4.61 z-score"
- item-sequence: "CCGATTAACATCACTTTCCCCCCTGATGTTAATCGGGTCTTGATTCGCTTGACGCTGCTG"
  reading: "5.84 z-score"
- item-sequence: "CCGATTAACATCACGGTACGGGGTGATGTTAATCGGGTCTTGATTCGCTTGACGCTGCTG"
  reading: "2.02 z-score"
- item-sequence: "CCGATTAACATCAGGGGATCCACTGATGTTAATCGGGTCTTGATTCGCTTGACGCTGCTG"
  reading: "7.41 z-score"
- item-sequence: "CCGATTAACATCAAAGTCCCCCCTGATGTTAATCGGGTCTTGATTCGCTTGACGCTGCTG"
  reading: "7.56 z-score"
